test system: Cryptococcus neoformans ATCC MYA-895 (M); assay: MIC determination by in vitro antifungal assay; format: cell-based; conditions: strain M = C. neoformans ATCC MYA-895
MEASURED ENDPOINT: log10(MIC) (log10 of the value in μg/mL^−1)

{"SMILES CODE": "O=C(NNc1ccc(Cl)cc1)c1ncc(F)cc1F", "VALUE MEASURED": 0.29}
{"SMILES CODE": "O=C(NNc1ccc(Cl)cc1)c1nc(F)ccc1F", "VALUE MEASURED": 0.29}
{"SMILES CODE": "O=C(NNc1ccc(Cl)cc1)c1ccc(F)cn1", "VALUE MEASURED": 0.59}
{"SMILES CODE": "O=C(NNc1ccc(F)cc1)c1ccc(F)cn1", "VALUE MEASURED": -0.01}
{"SMILES CODE": "O=C(NNc1ccc(Cl)cc1)c1cnccn1", "VALUE MEASURED": -0.01}
{"SMILES CODE": "COc1cccc(NNC(=O)c2ccc(F)cn2)c1", "VALUE MEASURED": -0.62}
{"SMILES CODE": "O=C(NNc1ccc(F)cc1F)c1cccc(Br)n1", "VALUE MEASURED": -0.31}

====

test system: Cryptococcus neoformans ATCC MYA-895 (M); assay: MIC determination by in vitro antifungal assay; format: cell-based; conditions: Cryptococcus neoformans, strain M = C. neoformans ATCC MYA-895; read-out: MIC
MIC listing for selected compounds.
MEASURED ENDPOINT: MIC (µg/mL)

{"COMPOUND": "O=C(NNc1ccc(F)cc1F)c1ccc(F)cc1F [Compound 1g]", "VALUE MEASURED": 0.49}
{"COMPOUND": "O=C(NNc1ccc(F)cc1F)c1ccc(Br)cn1 [Compound 4g]", "VALUE MEASURED": 1.95}
{"COMPOUND": "O=C(NNc1ccc(F)cc1)c1ccc(F)cc1F [Compound 1d]", "VALUE MEASURED": 0.49}
{"COMPOUND": "COc1ccc(NNC(=O)c2ncc(F)cc2F)cc1 [Compound 7f]", "VALUE MEASURED": 1.95}
{"COMPOUND": "O=C(NNc1cc(F)ccc1F)c1ccccn1 [Compound 2h]", "VALUE MEASURED": 0.49}
{"COMPOUND": "O=C(NNc1cc(Cl)cc(Cl)c1)c1ccccn1 [Compound 2j]", "VALUE MEASURED": 0.49}
{"COMPOUND": "O=C(NNc1ccc(F)cc1F)c1ccccn1 [Compound 2g]", "VALUE MEASURED": 0.24}
{"COMPOUND": "O=C(NNc1ccc(F)cc1)c1cccc(Br)n1 [Compound 6d]", "VALUE MEASURED": 0.98}
{"COMPOUND": "COc1ccc(NNC(=O)c2ccc(Br)cn2)cc1 [Compound 4f]", "VALUE MEASURED": 1.95}
{"COMPOUND": "COc1cccc(NNC(=O)c2cnccn2)c1 [Compound 9c]", "VALUE MEASURED": 0.49}
{"COMPOUND": "O=C(NNc1cc(Cl)cc(Cl)c1)c1ccc(F)cc1F [Compound 1j]", "VALUE MEASURED": 7.8}

====

Measured MIC values are reported for all entries that follow.
tested on: Candida auris strain AR Bank #384 (K); experiment: MIC determination by in vitro antifungal assay; format: cell-based; details: strain K = C. auris AR Bank # 0384 (Tables 1A/1B)

{"MOLECULE": "COc1cccc(NNC(=O)c2ccc(F)cn2)c1", "MEASUREMENT UNIT": "μg/mL^−1", "MIC": 1.95}
{"MOLECULE": "O=C(NNc1cccc(F)c1)c1ccc(F)cc1F", "MEASUREMENT UNIT": "μg/mL^−1", "MIC": 1.95}
{"MOLECULE": "O=C(NNc1cccc(F)c1)c1cccc(F)n1", "MEASUREMENT UNIT": "μg/mL^−1", "MIC": 1.95}
{"MOLECULE": "O=C(NNc1cccc(F)c1)c1cccc(Br)n1", "MEASUREMENT UNIT": "μg/mL^−1", "MIC": 3.9}
{"MOLECULE": "COc1cccc(NNC(=O)c2ccccn2)c1", "MEASUREMENT UNIT": "μg/mL^−1", "MIC": 0.98}
{"MOLECULE": "O=C(NNc1ccc(Cl)cc1)c1nc(F)ccc1F", "MEASUREMENT UNIT": "μg/mL^−1", "MIC": 7.8}
{"MOLECULE": "C[C@@H]1[C@H](O)[C@@H](C)/C=C/C=C/C=C/C=C/C=C/C=C/C=C/[C@H](O[C@@H]2O[C@H](C)[C@@H](O)[C@H](N)[C@@H]2O)C[C@@H]2O[C@](O)(C[C@@H](O)C[C@@H](O)[C@H](O)CC[C@@H](O)C[C@@H](O)CC(=O)O[C@H]1C)C[C@H](O)[C@H]2C(=O)O [AmB, amphotericin B, reference compound]", "MEASUREMENT UNIT": "μg/mL^−1", "MIC": 1.95}
{"MOLECULE": "O=C(NNc1ccc(Cl)cc1)c1ncc(F)cc1F", "MEASUREMENT UNIT": "μg/mL^−1", "MIC": 3.9}
{"MOLECULE": "O=C(NNc1cccc(F)c1)c1nc(F)ccc1F", "MEASUREMENT UNIT": "μg/mL^−1", "MIC": 1.95}
{"MOLECULE": "O=C(NNc1ccc(Cl)cc1)c1cccc(F)n1", "MEASUREMENT UNIT": "μg/mL^−1", "MIC": 3.9}
{"MOLECULE": "O=C(NNc1cccc(Cl)c1)c1ccccn1", "MEASUREMENT UNIT": "μg/mL^−1", "MIC": 0.98}
{"MOLECULE": "O=C(NNc1ccc(Cl)cc1)c1ccc(F)cn1", "MEASUREMENT UNIT": "μg/mL^−1", "MIC": 7.8}
{"MOLECULE": "O=C(NNc1cccc(F)c1)c1ncc(F)cc1F", "MEASUREMENT UNIT": "μg/mL^−1", "MIC": 1.95}
{"MOLECULE": "O=C(NNc1ccc(F)cc1)c1ccc(F)cn1", "MEASUREMENT UNIT": "μg/mL^−1", "MIC": 3.9}
{"MOLECULE": "O=C(NNc1cccc(F)c1)c1ccc(Br)cn1", "MEASUREMENT UNIT": "μg/mL^−1", "MIC": 1.95}
{"MOLECULE": "O=C(NNc1ccc(Cl)cc1)c1cnccn1", "MEASUREMENT UNIT": "μg/mL^−1", "MIC": 1.95}
{"MOLECULE": "O=C(NNc1ccc(Cl)cc1)c1ccccn1", "MEASUREMENT UNIT": "μg/mL^−1", "MIC": 1.95}
{"MOLECULE": "O=C(NNc1cccc(F)c1)c1ccccn1", "MEASUREMENT UNIT": "μg/mL^−1", "MIC": 1.95}
{"MOLECULE": "O=C(NNc1cccc(F)c1)c1cnccn1", "MEASUREMENT UNIT": "μg/mL^−1", "MIC": 0.98}
{"MOLECULE": "COc1ccc(NNC(=O)c2ccc(F)cn2)cc1", "MEASUREMENT UNIT": "μg/mL^−1", "MIC": 3.9}
{"MOLECULE": "O=C(NNc1ccc(Cl)cc1)c1ccc(F)cc1F", "MEASUREMENT UNIT": "μg/mL^−1", "MIC": 7.8}
{"MOLECULE": "O=C(NNc1cccc(F)c1)c1ccc(F)cn1", "MEASUREMENT UNIT": "μg/mL^−1", "MIC": 1.95}

Measured values drawn from patent US20240425464A1 for this set.
